assay: Metabolic stability in human liver microsomes assessed as parent compound remaining at 0.5 uM after 60 mins in presence of NADPH by LC/MS/MS analysis; type: ADME, Microsome; conditions: liver microsomes, read-out: Stability
READOUT_TYPE: remaining at 1 h, 0.5 µM

Task: Give its remaining at 1 h, 0.5 µM value. Item: Cc1cc(C(=O)O)c2c(C(C)C)nn(-c3ccc(Cl)cc3)c2n1
Output: 91%

---

Task for the reader: assign each of the following molecules its reported activation relative to fenofibrate.
target: Peroxisome proliferator-activated receptor alpha (Homo sapiens); assay: Transactivation of human GAL4-fused PPARalpha LBD expressed in human HepG2 cells at 1 uM after 24 hrs by dual renilla-luciferase reporter gene assay relative to fenofibrate; assay type: cell-based
No unit in the answer, please; the number alone is enough.

Task: Using the record for CCC(CC)c1nn(-c2ccc(Cl)cc2)c2nc(C)cc(C(=O)O)c12 , report its activation relative to fenofibrate.
Output: 183

Task: // returns reported activation relative to fenofibrate for input Cc1cc(C(=O)O)c2c(C(C)C)nn(-c3ccc(C(F)(F)F)cc3)c2n1
Output: 26

Task: Any idea what its activation relative to fenofibrate is? The molecule is CCc1cc(C(=O)O)c2c(C(CC)CC)nn(-c3ccc(Cl)cc3)c2n1
Output: 213

Task: Field request: activation relative to fenofibrate | item: Cc1cc(C(=O)O)c2c(C(C)C)nn(-c3ccc(Cl)cc3)c2n1
Output: 187

Task: Query: activation relative to fenofibrate; subject: CC(C)(Sc1ccc(CCN(CCCCC2CCCCC2)C(=O)NC2CCCCC2)cc1)C(=O)O
Output: 200

Task: What does the data say about its activation relative to fenofibrate? Entry: CCc1cc(C(=O)O)c2c(C(C)C)nn(-c3cccc(Cl)c3)c2n1
Output: 192

Task: Can you look up the measured activation relative to fenofibrate of Cc1cc(C(=O)O)c2c(C3CC3)nn(-c3ccc(Cl)cc3)c2n1 for me?
Output: 24.6

Task: Please look up its activation relative to fenofibrate: Cc1cc(C(=O)O)c2c(C(C)C)nn(-c3ccc(F)cc3)c2n1
Output: 79.2

Task: // activation relative to fenofibrate lookup, key: Cc1cc(C(=O)O)c2c(C3CCCC3)nn(-c3ccc(Cl)cc3)c2n1
Output: 64.8

Task: Given CC(C)c1nn(-c2ccc(Cl)cc2)c2nc(-c3ccccc3)cc(C(=O)O)c12 , state its recorded activation relative to fenofibrate.
Output: 243

Task: Could you tell me which activation relative to fenofibrate is on file for Cc1cc(C(=O)O)c2c(C(C)C)nn(-c3ccc(Cl)c(Cl)c3)c2n1 ?
Output: 51

Task: Which value of activation relative to fenofibrate has been reported for Cc1cc(C(=O)O)c2c(C)nn(-c3ccccc3)c2n1 in the records?
Output: 13.6

Task: Param item = CC(C)c1nn(-c2ccc(F)cc2)c2ncc(C(=O)O)c(Cl)c12 ; retrieve measured activation relative to fenofibrate.
Output: 6.21

Task: Which value of activation relative to fenofibrate has been reported for CCC(CC)c1nn(-c2ccc(F)cc2)c2nc(C)cc(C(=O)O)c12 in the records?
Output: 205

Task: Suppose we examine the molecule O=C(O)c1cc(C2CC2)nc2c1c(C1CCCC1)nn2-c1ccc(Cl)cc1 ; what activation relative to fenofibrate value has been reported?
Output: 76.8

Task: Quick check: activation relative to fenofibrate of Cc1cc(C(=O)O)c2c(C(C)(C)C)nn(-c3cccc(Cl)c3)c2n1 ?
Output: 5.75

Task: What measured activation relative to fenofibrate goes with CCC(C)c1nn(-c2ccc(Cl)cc2)c2nc(C)cc(C(=O)O)c12 (centres undefined) ?
Output: 176

Task: Suppose we examine the molecule CCc1cc(C(=O)O)c2c(C(C)C)nn(-c3ccc(Cl)cn3)c2n1 ; what activation relative to fenofibrate value has been reported?
Output: 16.2

Task: Please look up its activation relative to fenofibrate: CCc1cc(C(=O)O)c2c(C(CC)CC)nn(-c3ccc(F)cc3)c2n1
Output: 250

Task: Using the record for CCC(Cc1cc(C)nc2c1c(C(C)C)nn2-c1ccc(F)cc1)C(=O)O (centres undefined) , report its activation relative to fenofibrate.
Output: 1.53

Task: If you can, please state the reported activation relative to fenofibrate value of CCc1cc(C(=O)O)c2c(C(C)C)nn(-c3ccc(I)cc3)c2n1 .
Output: 111

Task: So what's the measured activation relative to fenofibrate for this one? Cc1cc(C(=O)O)c2c(C(C)C)nn(-c3ccc(Br)cc3)c2n1
Output: 85.2

Task: I am curious: what activation relative to fenofibrate value has been reported for CCc1cc(C(=O)O)c2c(C(C)C)nn(-c3ccc(Br)cc3)c2n1 ?
Output: 251

Task: Reported activation relative to fenofibrate for CC(C)c1nn(-c2cccc(Cl)c2)c2nc(C3CC3)cc(C(=O)O)c12 : what is it?
Output: 163
